TARGET_OF_ASSAY: UniProt Q99683
MEASUREMENT_LABEL: IC50

Use the examples below as a reference point.
Cc1cc(F)c(C(=O)Nc2cccc(-c3nncn3[C@H](C)CO)n2)cc1C1CC1NS(=O)(=O)N(C)C (stereo partly drawn) [Example 28]
1 to 10 nM
COc1cc(C)c(C2CC2NC(=O)N(C)CCC(F)(F)F)cc1C(=O)Nc1cccc(-c2nncn2C(C)C)n1 (stereo not drawn) [Example 18]
1 to 10 nM
Cc1cc(F)c(C(=O)Nc2cccc(-c3nncn3[C@H](C)CO)n2)cc1C1CC1NS(=O)(=O)CCC(F)(F)F (stereo partly drawn) [Example 27]
1 to 10 nM
Cc1cc(F)c(C(=O)Nc2cccc(-c3nncn3C(C)C)n2)cc1C1CC1NC(=O)N(C)CCC(F)(F)F (stereo not drawn) [Example 13]
> 10 nM
Cc1cc(F)c(C(=O)Nc2cccc(-c3nncn3C(C)C)n2)cc1C1CC1NC(=O)OC(C)(C)C (stereo not drawn) [Example 4]
1 to 10 nM

Here is the next item to consider.
Q: Any idea what IC50 was measured for COc1cc(C)c(C2CC2NC(=O)C(C)(C)C)cc1C(=O)Nc1cccc(-c2nncn2C(C)C)n1 (stereo not drawn) [Example 23] ?
A: 1 to 10 nM

* * *

pIC50: −log10 of the molar value.
Below are pIC50 values measured for ASK1 kinase (Homo sapiens (Human)).

Cc1cnc(C(=O)Nc2cccc(-c3nnnn3[C@H](C)CO)n2)cc1C1CC(NC(=O)OC(C)(C)C)C1 (stereo partly shown)
< 8.00
COc1cc(C)c(C2CC2NC(=O)c2ccc(F)cc2)cc1C(=O)Nc1cccc(-c2nncn2C(C)C)n1 (stereo not shown)
8.00 to 9.00

Q: Data request, read-out pIC50, for CCOC(=O)C1CC1c1cc(C(=O)Nc2cccc(-c3nncn3C(C)C)n2)ncc1C (stereo not shown)
A: 8.00 to 9.00

Q: And COc1cc(C)c(C2CC2NS(=O)(=O)N(C)C)cc1C(=O)Nc1cccc(-c2nncn2C(C)C)n1 (stereo not shown) ?
A: 8.00 to 9.00

Q: Another molecule: COc1cc(C)c(C2CC2C(=O)N2CCC(F)(F)C2)cc1C(=O)Nc1cccc(-c2nncn2C(C)C)n1 (stereo not shown)
A: 8.00 to 9.00

Q: For Cc1cc(F)c(C(=O)Nc2cccc(-c3nncn3[C@H](C)CO)n2)cc1C1CC1C(=O)N1CCC(F)(F)C1 (stereo partly shown) then?
A: 8.00 to 9.00

Q: Would you kindly repeat that for Cc1cnc(C(=O)Nc2cccc(-c3nncn3C(C)C)n2)cc1C1CC1NC(=O)OCC(F)(F)F (stereo not shown) ?
A: < 8.00
